Cited source: patent US5453426A

biological target: A1 adenosine receptors (Rattus norvegicus, UniProt P25099); construct: A1 adenosine receptors in rat cerebral cortical membranes; from tissue; host or cells: rat cerebral cortex membranes; assay: Inhibition of binding of [3H]N6-phenylisopropyladenosine to A1 adenosine receptors in rat cerebral cortical membranes; conditions: rat cortical membranes, [3H]PIA; single determination in triplicate or average of three ± S.E.M.; read-out: Ki A1-receptors
pKi: −log10 of the molar value.
Record Y whenever pKi is at 7 or higher; record N when lower.

>  <COMPOUND>
CCn1c(=S)c2[nH]c(-c3ccccc3)nc2n(CC)c1=O [Compound 57]

>  <LABEL CLASS>
N

$$$$
>  <COMPOUND>
Cn1c(=S)c2[nH]c(C3CCCC3)nc2n(C)c1=S [Compound 52]

>  <LABEL CLASS>
Y

$$$$
>  <COMPOUND>
CCCn1c(=O)c2[nH]c(-c3ccc(OCC(=O)O)cc3)nc2n(CCC)c1=O [Compound 27]

>  <LABEL CLASS>
Y

$$$$
>  <COMPOUND>
CCCn1c(=O)c2[nH]c(-c3cccs3)nc2n(CCC)c1=O [Compound 19]

>  <LABEL CLASS>
Y

$$$$
>  <COMPOUND>
Cn1c(=S)c2[nH]c(C3CCCC3)nc2n(C)c1=O [Compound 54]

>  <LABEL CLASS>
N

$$$$
>  <COMPOUND>
CCCn1c(=O)c2[nH]c(-c3ccc(OCC(=O)OCC)cc3)nc2n(CCC)c1=O [Compound 29]

>  <LABEL CLASS>
Y

$$$$
>  <COMPOUND>
CCCn1c(=O)c2[nH]c(-c3ccc(OCC(=O)OCC)cc3)nc2n(CCC)c1=S [Compound 30]

>  <LABEL CLASS>
Y

$$$$
>  <COMPOUND>
Cn1c(=O)c2[nH]c(-c3cccs3)nc2n(C)c1=O [Compound 17]

>  <LABEL CLASS>
N

$$$$
>  <COMPOUND>
CCCn1c(=O)c2[nH]c(C3CCCC3)nc2n(CCC)c1=S [Compound 14]

>  <LABEL CLASS>
Y

$$$$

###

Target: A1 adenosine receptors (Rattus norvegicus, UniProt P25099)
Construct: A1 adenosine receptors in rat cerebral cortical membranes; from tissue; host or cells: rat cerebral cortex membranes
Sequence (P25099 1-326): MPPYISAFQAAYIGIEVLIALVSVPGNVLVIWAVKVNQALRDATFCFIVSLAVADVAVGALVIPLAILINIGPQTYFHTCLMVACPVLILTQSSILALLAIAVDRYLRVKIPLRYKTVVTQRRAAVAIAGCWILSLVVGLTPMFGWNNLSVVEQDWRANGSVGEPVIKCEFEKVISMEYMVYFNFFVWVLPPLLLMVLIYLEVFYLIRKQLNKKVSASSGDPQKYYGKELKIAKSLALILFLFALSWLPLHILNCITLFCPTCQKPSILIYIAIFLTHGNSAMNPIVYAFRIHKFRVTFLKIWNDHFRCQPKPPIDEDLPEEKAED
Assay: Inhibition of binding of [3H]N6-phenylisopropyladenosine to A1 adenosine receptors in rat cerebral cortical membranes
Conditions: ratio of A2 (rat striatum) to A1 (rat cortex) Ki
Label criterion met when Ki (A2)/Ki (A1) < 7; otherwise criterion not met.

>  <MOLECULE>
CCCn1c(=O)c2[nH]c(-c3ccsc3)nc2n(CCC)c1=O [Compound 20]

>  <LABEL CLASS>
criterion not met

$$$$
>  <MOLECULE>
CCCn1c(=O)c2[nH]c(-c3ccc(OCC(=O)NCCNC(=O)[C@@H](CCCCNC(=O)OCc4ccccc4)NC(=O)OC(C)(C)C)cc3)nc2n(CCC)c1=S [Compound 39]

>  <LABEL CLASS>
criterion not met

$$$$
>  <MOLECULE>
CCCn1c(=O)c2[nH]c(-c3ccc(OCC(=O)NCCN(C)C)cc3)nc2n(CCC)c1=O [Compound 34]

>  <LABEL CLASS>
criterion met

$$$$
>  <MOLECULE>
CCCn1c(=S)c2[nH]c(C3CCCC3)nc2n(CCC)c1=O [Compound 55]

>  <LABEL CLASS>
criterion not met

$$$$
>  <MOLECULE>
CCCn1c(=O)c2[nH]c(-c3ccc(OCC(=O)NCCNC(=O)[C@H](N)CCCCNC(=O)OCc4ccccc4)cc3)nc2n(CCC)c1=O [Compound 40]

>  <LABEL CLASS>
criterion not met

$$$$
>  <MOLECULE>
CCCn1c(=S)c2[nH]c(C3CCCC3)nc2n(CCC)c1=S [Compound 53]

>  <LABEL CLASS>
criterion not met

$$$$
>  <MOLECULE>
CCCn1c(=O)c2[nH]c(-c3ccc(OCC(=O)O)cc3)nc2n(CCC)c1=S [Compound 28]

>  <LABEL CLASS>
criterion met

$$$$

###

biological target: A1 adenosine receptors (Rattus norvegicus, UniProt P25099); construct: A1 adenosine receptors in rat cerebral cortical membranes; from tissue; host or cells: rat cerebral cortex membranes; experiment: Inhibition of binding of [3H]N6-phenylisopropyladenosine to A1 adenosine receptors in rat cerebral cortical membranes; settings: rat cortical membranes, [3H]PIA; single determination in triplicate or average of three ± S.E.M.; read-out: Ki A1-receptors
Ki: recorded values
OBSERVED PROPERTY: Ki (nM)

>  <STRUCTURE SMILES STRING>
CCCn1c(=O)c2[nH]c(-c3ccc(OCC(=O)N(C)CCN(C)C)cc3)nc2n(CCC)c1=S

>  <READOUT UNITS>
nM

>  <REPORTED VALUE>
2.57

$$$$
>  <STRUCTURE SMILES STRING>
CCCn1c(=S)c2[nH]c(C3CCCC3)nc2n(CCC)c1=S

>  <READOUT UNITS>
nM

>  <REPORTED VALUE>
4.87

$$$$
>  <STRUCTURE SMILES STRING>
CCCn1c(=O)c2[nH]c(-c3cccs3)nc2n(CCC)c1=S

>  <READOUT UNITS>
nM

>  <REPORTED VALUE>
35.1

$$$$
>  <STRUCTURE SMILES STRING>
CCCn1c(=O)c2[nH]c(-c3ccc(OCC(=O)NCCNC)cc3)nc2n(CCC)c1=S

>  <READOUT UNITS>
nM

>  <REPORTED VALUE>
2.4

$$$$
>  <STRUCTURE SMILES STRING>
CCCn1c(=O)c2[nH]c(-c3ccc(OCC(=O)NCCNC(=O)Cc4ccc(I)s4)cc3)nc2n(CCC)c1=O

>  <READOUT UNITS>
nM

>  <REPORTED VALUE>
11.3

$$$$
>  <STRUCTURE SMILES STRING>
Cn1c(=O)c2[nH]c(-c3ccsc3)nc2n(C)c1=O

>  <READOUT UNITS>
nM

>  <REPORTED VALUE>
152

$$$$
>  <STRUCTURE SMILES STRING>
CCCn1c(=O)c2[nH]c(-c3ccsc3)nc2n(CCC)c1=O

>  <READOUT UNITS>
nM

>  <REPORTED VALUE>
10

$$$$
>  <STRUCTURE SMILES STRING>
Cn1c(=S)c2[nH]c(-c3ccccc3)nc2n(C)c1=O

>  <READOUT UNITS>
nM

>  <REPORTED VALUE>
1380

$$$$
>  <STRUCTURE SMILES STRING>
CCCn1c(=S)c2[nH]c(C3CCCC3)nc2n(CCC)c1=O

>  <READOUT UNITS>
nM

>  <REPORTED VALUE>
15.5

$$$$

###

molecular target: A2 adenosine receptors (Rattus norvegicus, UniProt P30543); test: Inhibition of binding of [3H]N-ethylcarboxamidoadenosine to A2-adenosine receptors in rat striatal membranes
Sequence (P30543 whole entry): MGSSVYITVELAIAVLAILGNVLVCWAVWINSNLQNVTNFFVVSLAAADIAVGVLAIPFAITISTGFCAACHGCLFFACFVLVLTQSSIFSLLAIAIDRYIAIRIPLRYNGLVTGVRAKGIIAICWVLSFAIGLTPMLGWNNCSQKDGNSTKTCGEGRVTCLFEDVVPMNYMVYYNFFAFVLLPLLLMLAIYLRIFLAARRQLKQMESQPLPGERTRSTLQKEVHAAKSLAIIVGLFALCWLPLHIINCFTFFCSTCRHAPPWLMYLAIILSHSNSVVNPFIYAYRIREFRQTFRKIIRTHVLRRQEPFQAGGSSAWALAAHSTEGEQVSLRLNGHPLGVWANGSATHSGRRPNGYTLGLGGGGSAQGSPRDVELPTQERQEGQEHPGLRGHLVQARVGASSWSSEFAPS
pKi: −log10 of the molar value.
Record rule met whenever pKi is at 6 or higher; record rule not met when lower.

>  <COMPOUND>
CCCn1c(=O)c2[nH]c(C3CCCC3)nc2n(CCC)c1=S [Compound 14]

>  <SUBJECT OF TEST>
A2 adenosine receptors (Rattus norvegicus, UniProt P30543)

>  <LABEL CLASS>
rule met

$$$$
>  <COMPOUND>
Cn1c(=O)c2[nH]c(-c3cccs3)nc2n(C)c1=O [Compound 17]

>  <SUBJECT OF TEST>
A2 adenosine receptors (Rattus norvegicus, UniProt P30543)

>  <LABEL CLASS>
rule not met

$$$$
>  <COMPOUND>
Cn1c(=S)c2[nH]c(-c3ccccc3)nc2n(C)c1=O [Compound 56]

>  <SUBJECT OF TEST>
A2 adenosine receptors (Rattus norvegicus, UniProt P30543)

>  <LABEL CLASS>
rule not met

$$$$
>  <COMPOUND>
CCCn1c(=O)c2[nH]c(-c3ccc(OCC(=O)NCCNC(=O)[C@H](N)CCCCNC(=O)OCc4ccccc4)cc3)nc2n(CCC)c1=S [Compound 41]

>  <SUBJECT OF TEST>
A2 adenosine receptors (Rattus norvegicus, UniProt P30543)

>  <LABEL CLASS>
rule met

$$$$
>  <COMPOUND>
CCn1c(=S)c2[nH]c(-c3ccccc3)nc2n(CC)c1=O [Compound 57]

>  <SUBJECT OF TEST>
A2 adenosine receptors (Rattus norvegicus, UniProt P30543)

>  <LABEL CLASS>
rule not met

$$$$
>  <COMPOUND>
CCCn1c(=O)c2[nH]c(-c3cccs3)nc2n(CCC)c1=O [Compound 19]

>  <SUBJECT OF TEST>
A2 adenosine receptors (Rattus norvegicus, UniProt P30543)

>  <LABEL CLASS>
rule met

$$$$
>  <COMPOUND>
CCCn1c(=S)c2[nH]c(C3CCCC3)nc2n(CCC)c1=O [Compound 55]

>  <SUBJECT OF TEST>
A2 adenosine receptors (Rattus norvegicus, UniProt P30543)

>  <LABEL CLASS>
rule not met

$$$$
>  <COMPOUND>
CCCn1c(=O)c2[nH]c(-c3ccc(OCC(=O)N(C)CCN(C)C)cc3)nc2n(CCC)c1=S [Compound 37]

>  <SUBJECT OF TEST>
A2 adenosine receptors (Rattus norvegicus, UniProt P30543)

>  <LABEL CLASS>
rule met

$$$$
>  <COMPOUND>
CCCn1c(=O)c2[nH]c(-c3ccc(OCC(=O)NCCNC(=O)Cc4cccs4)cc3)nc2n(CCC)c1=O [Compound 46]

>  <SUBJECT OF TEST>
A2 adenosine receptors (Rattus norvegicus, UniProt P30543)

>  <LABEL CLASS>
rule met

$$$$
